molecular target: Death-associated protein kinase 1 (Homo sapiens) (UniProt P53355); settings: at 1 µM;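 note: each value is a mean inhibition figure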
Sequence (P53355 whole entry, looked up): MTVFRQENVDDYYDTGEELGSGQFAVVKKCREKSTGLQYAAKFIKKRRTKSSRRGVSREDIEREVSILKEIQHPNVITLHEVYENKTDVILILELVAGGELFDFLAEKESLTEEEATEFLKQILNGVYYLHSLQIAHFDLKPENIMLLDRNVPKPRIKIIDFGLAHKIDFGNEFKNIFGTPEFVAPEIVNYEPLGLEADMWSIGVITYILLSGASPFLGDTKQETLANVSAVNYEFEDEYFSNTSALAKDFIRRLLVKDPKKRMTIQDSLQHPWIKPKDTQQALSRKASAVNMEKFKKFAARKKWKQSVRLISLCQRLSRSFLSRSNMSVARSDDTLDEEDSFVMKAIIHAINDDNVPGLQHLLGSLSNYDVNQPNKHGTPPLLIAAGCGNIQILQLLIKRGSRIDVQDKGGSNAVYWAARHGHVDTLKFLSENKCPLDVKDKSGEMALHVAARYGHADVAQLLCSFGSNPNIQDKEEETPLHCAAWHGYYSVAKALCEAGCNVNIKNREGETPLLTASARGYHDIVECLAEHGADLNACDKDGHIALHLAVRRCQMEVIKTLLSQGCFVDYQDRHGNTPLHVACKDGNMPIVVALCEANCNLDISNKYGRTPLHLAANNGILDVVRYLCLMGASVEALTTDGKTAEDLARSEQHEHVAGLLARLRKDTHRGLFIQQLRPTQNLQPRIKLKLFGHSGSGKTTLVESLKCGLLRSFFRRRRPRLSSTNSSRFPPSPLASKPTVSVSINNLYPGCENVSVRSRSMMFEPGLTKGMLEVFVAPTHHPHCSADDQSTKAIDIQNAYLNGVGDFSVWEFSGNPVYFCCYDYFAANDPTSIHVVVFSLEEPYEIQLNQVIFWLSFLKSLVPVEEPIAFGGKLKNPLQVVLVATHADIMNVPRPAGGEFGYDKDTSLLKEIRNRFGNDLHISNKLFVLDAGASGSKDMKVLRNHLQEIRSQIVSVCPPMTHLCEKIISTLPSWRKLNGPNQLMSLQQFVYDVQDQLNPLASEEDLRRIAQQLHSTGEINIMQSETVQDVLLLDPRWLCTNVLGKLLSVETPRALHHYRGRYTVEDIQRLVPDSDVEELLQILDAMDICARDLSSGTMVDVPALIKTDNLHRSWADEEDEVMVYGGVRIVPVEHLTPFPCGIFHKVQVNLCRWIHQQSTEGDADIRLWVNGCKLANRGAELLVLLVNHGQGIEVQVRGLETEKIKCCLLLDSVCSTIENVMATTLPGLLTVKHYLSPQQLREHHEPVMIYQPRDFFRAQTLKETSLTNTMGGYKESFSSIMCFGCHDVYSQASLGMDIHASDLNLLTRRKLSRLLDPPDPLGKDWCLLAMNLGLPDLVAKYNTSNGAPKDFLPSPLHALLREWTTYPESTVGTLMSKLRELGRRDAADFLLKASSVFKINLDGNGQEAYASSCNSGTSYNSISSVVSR
measurement-label: inhibition (%)
One number for each entry, in %.

COC(=O)c1ccc2c(c1)C(=Cc1cc(Br)c(O)c(Br)c1)C(=O)N2: -8.17
COc1cc(/C=N/Nc2ncnc3c2cnn3C(C)C)ccc1O: 0.9
Cc1cc(Cl)cc2c1NC(=O)C2=NNc1ccc(S(N)(=O)=O)cc1: 3.49
COc1cccc(-n2ncc3c(N/N=C/c4ccc(C)cc4)ncnc32)c1: -4.37
CCn1c(-c2nonc2N)nc2ccc(F)cc21: 10.7
Cc1ccc2c(-c3ccnc(Nc4cccc(C(F)(F)F)c4)n3)c(-c3ccccc3)nn2n1: -5.56
CCS(=O)(=O)c1ccc(OC)c(Nc2ncc(-c3cccc(OC)c3)o2)c1: 4.19
CN(c1ccc(NC(=O)Nc2ccc(OC(F)(F)F)cc2)cc1)c1ccnc(Nc2cccc(S(N)(=O)=O)c2)n1: 2.02

Give me inhibition for each of these compounds, listed below.
1. CS(=O)(=O)Nc1cccc(-c2ccc3c(NC(=O)C4CC4)n[nH]c3c2)c1
2. COc1ccc2ncnc(Nc3ccc(OCc4ccccc4)cc3)c2c1

1. 3.29
2. 3.26

----------
molecular target: NUAK family SNF1-like kinase 1 (Homo sapiens) (UniProt O60285); settings: at 0.1 µM;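 note: reported values are mean inhibition of ARK5 (NUAK1), from the GSK PKIS screen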
Sequence (O60285 whole entry): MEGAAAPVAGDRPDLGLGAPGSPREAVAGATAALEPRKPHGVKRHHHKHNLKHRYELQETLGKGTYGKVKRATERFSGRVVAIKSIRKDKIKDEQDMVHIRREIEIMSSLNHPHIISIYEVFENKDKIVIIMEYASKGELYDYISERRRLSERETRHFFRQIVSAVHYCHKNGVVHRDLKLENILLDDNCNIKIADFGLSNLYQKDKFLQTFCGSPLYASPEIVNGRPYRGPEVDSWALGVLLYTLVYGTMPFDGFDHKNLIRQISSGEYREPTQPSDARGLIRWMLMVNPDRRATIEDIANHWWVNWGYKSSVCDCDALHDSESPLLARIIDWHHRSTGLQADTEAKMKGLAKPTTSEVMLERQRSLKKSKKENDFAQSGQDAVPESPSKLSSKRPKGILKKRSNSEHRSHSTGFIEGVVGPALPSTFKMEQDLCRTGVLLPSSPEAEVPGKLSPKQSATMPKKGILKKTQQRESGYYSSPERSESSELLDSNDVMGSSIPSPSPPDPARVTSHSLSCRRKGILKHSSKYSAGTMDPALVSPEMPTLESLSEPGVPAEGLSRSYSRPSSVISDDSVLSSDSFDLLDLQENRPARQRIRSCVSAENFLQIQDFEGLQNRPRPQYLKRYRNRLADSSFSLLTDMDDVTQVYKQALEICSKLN
measurement-label: inhibition (%)
Numbers only, in %.

Would you please look over these solved cases?
NS(=O)(=O)c1ccc(-c2cc3ccncc3cc2OCc2ccccc2)cc1: -0.67
CC(C)c1ccc(Nc2nccc(-c3cnn4ncccc34)n2)cc1: 12.6
O=C1Nc2ccc(-c3cccnc3)cc2C1=Cc1cc(Br)c(O)c(Br)c1: -0.34
CN(c1ccc(NC(=O)Nc2ccc(OC(F)(F)F)cc2)cc1)c1ccnc(Nc2cccc(S(N)(=O)=O)c2)n1: -0.52
CN(C)CCCn1c(-c2nonc2N)nc2cnccc21: 3.04
c1ccc(Cc2nc3ccc(Nc4ncnc5ccccc45)cc3[nH]2)cc1: 4.96
C[C@@H](Oc1cc(-n2cnc3ccc(OCC4CCN(C)CC4)cc32)sc1C(N)=O)c1ccccc1C(F)(F)F: 50.5
NC(=O)c1cccc(Nc2nccc(Nc3cccc(F)c3)n2)c1: 23

Go through the list and state inhibition for each entry.
1. c1ccc(Nc2ncc(-c3ccccc3)o2)cc1
2. COc1cccc(-n2ncc3c(N/N=C/c4ccc(S(C)(=O)=O)cc4)ncnc32)c1
3. Cc1nc(-c2ccccc2)n2nc(NCCCN3CCOCC3)ncc12

-0.12
14.7
0.66

----------
molecular target: Tyrosine-protein kinase Lyn (Homo sapiens); settings: at 1 µM;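 note: kinase tested as its LYN B splice variant, values given as mean percent inhibition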
Description: GSK_PKIS: LYN B (splice variant) mean inhibition at 1 uM [Nanosyn]
Note: every record was labeled by where its inhibition sits among 0 = under 4%, 1 = from 4% up to 30%, 2 = 30% and over

Cc1ccc2c(c1)/C(=N/Nc1ccc(S(N)(=O)=O)cc1)C(=O)N2: 1
COc1cc2ncnc(Nc3ccc4c(cnn4Cc4ccccc4)c3)c2cc1OC: 2
O=C1Nc2ccc(-c3cccnc3)cc2C1=Cc1cc(Br)c(O)c(Br)c1: 1

# next compound below
Which class is correct for the following compound? CCS(=O)(=O)c1ccc(OC)c(Nc2nccc(N(C)c3ccc4c(C)n[nH]c4c3)n2)c1
2

----------
molecular target: Tyrosine-protein kinase CSK (Homo sapiens); settings: at 0.1 µM;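 note: value given is the averaged percent inhibition of CSK kinase activity, from the GSK PKIS kinase inhibitor set screening panel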
measurement-label: inhibition (%)
Numbers only, in %.

Reference set, count: 5
CCn1c(-c2nonc2N)nc2ccc(F)cc21: 5.53
Cc1ccc(NC(=O)CC2CC2)cc1-c1ccc(C(=O)NCC2CC2)cc1: 4.41
Cc1ccc(O)cc1Nc1ccnc2ccc(S(C)(=O)=O)cc12: 70.3
O=C(Nc1ccc(Oc2ccc3[nH]c(NC(=O)c4ccco4)nc3c2)cc1)Nc1cc(C(F)(F)F)ccc1F: 2.94
CCn1c(-c2nonc2N)nc2c(C#CC(C)(C)O)nc(OCCNC)cc21: 1.36

Dear colleague, could you please provide inhibition for the compounds listed below?
1. ON=C1CCc2cc(-c3nc(C4CCNCC4)[nH]c3-c3ccncc3)ccc21
2. [O-][S+]1CCN(Cc2ccc(-c3ccc4ncnc(Nc5ccc(OCc6ccccc6)c(Cl)c5)c4c3)o2)CC1
3. COc1cccc(-n2ncc3c(N/N=C/c4ccc(C)cc4)ncnc32)c1

1: -4.87; 2: -0.03; 3: 2.91

Would you mind giving inhibition for every compound in the list below?
1. Cc1ccc2c(-c3ccnc(Nc4ccc5c(c4)OCCO5)n3)c(-c3ccc(C(F)(F)F)cc3)nn2n1
2. Cc1ccc(Nc2ccnc(Nc3cccc(C(N)=O)c3)n2)cc1O
3. CC(C)c1ccc(Nc2nccc(-c3cnn4ncccc34)n2)cc1
4. Oc1cccc(-c2nc(-c3ccccc3)[nH]c2-c2ccncc2)c1

1. -2.99
2. 10.8
3. 4.27
4. 6.74
